Can you tell me Ki for the items I'm about to list?
target: cloned muscarinic - M1 binding site (Homo sapiens, UniProt P11229); construct: expressed in transfected cells; host or cells: CHO cells; test: Muscarinic M1 binding assay, [3H]-Scopolamine N-Methyl Chloride, human recombinant expressed in CHO cells; conditions: Series 11 compounds, Table 5; unit inferred; receptor source not given; read-out: M1 Ki
Sequence (P11229 whole entry): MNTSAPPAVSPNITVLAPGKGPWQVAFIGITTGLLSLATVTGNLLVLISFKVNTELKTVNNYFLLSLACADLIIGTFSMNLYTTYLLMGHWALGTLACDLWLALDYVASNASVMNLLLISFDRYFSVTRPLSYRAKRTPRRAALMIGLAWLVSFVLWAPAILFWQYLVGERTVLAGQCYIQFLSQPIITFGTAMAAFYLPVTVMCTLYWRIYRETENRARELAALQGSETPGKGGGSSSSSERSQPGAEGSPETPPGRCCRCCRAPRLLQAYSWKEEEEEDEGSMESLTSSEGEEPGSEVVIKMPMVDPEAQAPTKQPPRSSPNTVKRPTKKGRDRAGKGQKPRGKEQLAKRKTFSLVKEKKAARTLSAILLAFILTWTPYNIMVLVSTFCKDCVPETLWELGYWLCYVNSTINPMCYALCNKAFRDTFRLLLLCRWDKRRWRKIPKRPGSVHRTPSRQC
One number for each entry, in nM.

Go through the list and state Ki for each entry.
1. O=C(CCN1CCC(=C(c2ccccc2)c2ccccc2)CC1)OC1CCOC1 (centres unmarked) [Compound 11h]
2. O=C(CCN1CCC(=C(c2ccccc2)c2ccccc2)CC1)OC1CCCC1.O=C(O)C(=O)O [Compound 11f]
3. O=C(CCN1CCC(=C(c2ccccc2)c2ccccc2)CC1)OC1CCOCC1 [Compound 11i]
4. CC(C)COC(=O)CCN1CCC(=C(c2ccccc2)c2ccccc2)CC1 [Compound 11e]

1: 172; 2: 170; 3: 17; 4: 289
